Tested on: KO-52 cells
Experiment: Proliferation assay (spheroid growth, 8 days), KO-52 control cell line
Format: cell-based, human
Details: Homo sapiens, […], read-out: spheroid assay_OneTime KO-52 IC50
Procedure: The anti-proliferative effect of menin/MLL protein/protein interaction inhibitor test compounds was assessed in human leukemia cell lines. […] In order to assess the anti-proliferative effects, 200 MOLM14 cells, 200 OCI-AML3 cells or 300 KO-52 cells were seeded in 200 μl media per well in […] round bottom, ultra-low attachment plates (Costar, catalogue number 7007). […] Spheroid like growth was measured in real-time by live-cell imaging (IncuCyteZOOM, Essenbio, 4× objective) acquiring images at day 8. […]
pIC50: −log10 of the molar value.

{"Compound": "CCN(C(=O)c1cc(F)ccc1Oc1nncnc1N1CCC2(C1)CN([C@H](CCNCCO)C(C)C)C2)C(C)C (single isomer, unassigned)", "Tested Target": "KO-52 cells", "pIC50": "< 4.82"}
{"Compound": "CCN(C(=O)c1cc(F)ccc1Oc1nncnc1N1CCC2(C1)CN([C@H](CCN(C)CCCOC)C(C)C)C2)C(C)C (single isomer, unassigned)", "Tested Target": "KO-52 cells", "pIC50": "< 4.82"}
{"Compound": "CCN(C(=O)c1cc(F)ccc1Oc1nncnc1N1CCC2(C1)CN([C@H](CCCNCC(CO)OC)C(C)C)C2)C(C)C (some centres unmarked)", "Tested Target": "KO-52 cells", "pIC50": "< 4.82"}
{"Compound": "CCN(CCC[C@H](C(C)C)N1CC2(CCN(c3ncnnc3Oc3ccc(F)cc3C(=O)N(CC)C(C)C)C2)C1)CCOC", "Tested Target": "KO-52 cells", "pIC50": 4.89}
{"Compound": "CC(C)[C@@H](CCCN(C)[C@@H](C)CC(N)=O)N1CC2(CCN(c3ncnnc3Oc3ccc(F)cc3C(=O)N(C(C)C)C(C)C)C2)C1 (single isomer, unassigned)", "Tested Target": "KO-52 cells", "pIC50": "< 4.82"}
